These data points were gathered from PubChem BioAssay AID1963437.

- System: OVCAR-8 complex spheroid, growth inhibition
- ASSAY EXPLANATION: Anticancer human tumor OVCAR-8 cell line growth inhibition [Asc]; active = viability on the fitted dose curve at most 10% of control; inactive = the rest;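 also: spheroids exposed to agents for 7 days before readout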
- CONDITION PARAMETERS: second compound 0.00316 µM; first compound 3.16 µM
Outcome codes: 1 for active, 0 for inactive

COMPOUND	ANSWER LABEL
C=C(F)C(=O)N1CCN(c2nc(OCC3CCCN3C)nc3c2CCN(c2cccc4cccc(Cl)c24)C3)CC1CC#N (centres undefined) + CNC(C)C(=O)NC1CN(S(=O)(=O)c2cccc(S(=O)(=O)N3CCC4CCC(C(=O)NC(c5ccccc5)c5ccccc5)N4C(=O)C(NC(=O)C(C)NC)C3)c2)CCC2CCC(C(=O)NC(c3ccccc3)c3ccccc3)N2C1=O	1
O=C(c1cc(Cc2n[nH]c(=O)c3ccccc23)ccc1F)N1CCN(C(=O)C2CC2)CC1 + CNC(C)C(=O)NC1CN(S(=O)(=O)c2cccc(S(=O)(=O)N3CCC4CCC(C(=O)NC(c5ccccc5)c5ccccc5)N4C(=O)C(NC(=O)C(C)NC)C3)c2)CCC2CCC(C(=O)NC(c3ccccc3)c3ccccc3)N2C1=O	1
C#Cc1c(F)ccc2cc(O)cc(-c3ncc4c(N5CC6CCC(C5)N6)nc(OCC56CCCN5CC(F)C6)nc4c3F)c12 (centres undefined) + CNC(C)C(=O)NC1CN(S(=O)(=O)c2cccc(S(=O)(=O)N3CCC4CCC(C(=O)NC(c5ccccc5)c5ccccc5)N4C(=O)C(NC(=O)C(C)NC)C3)c2)CCC2CCC(C(=O)NC(c3ccccc3)c3ccccc3)N2C1=O	0
C=CC(=O)N1CCN(c2nc(=O)n(-c3c(C)ccnc3C(C)C)c3nc(-c4c(O)cccc4F)c(F)cc23)C(C)C1 (centres undefined) + CNC(C)C(=O)NC1CN(S(=O)(=O)c2cccc(S(=O)(=O)N3CCC4CCC(C(=O)NC(c5ccccc5)c5ccccc5)N4C(=O)C(NC(=O)C(C)NC)C3)c2)CCC2CCC(C(=O)NC(c3ccccc3)c3ccccc3)N2C1=O	0

* * *

- Tested on: OVCAR-8 complex spheroid, growth inhibition
- ASSAY EXPLANATION: Anticancer human tumor OVCAR-8 cell line growth inhibition [Asc];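 also: spheroids exposed to agents for 7 days before readout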
- CONDITION PARAMETERS: curve of first compound; second compound 0.0949 µM
MEASURED PROPERTY: IC50

MOLECULE	REPORTED MEASUREMENT
C#Cc1c(F)ccc2cc(O)cc(-c3ncc4c(N5CC6CCC(C5)N6)nc(OCC56CCCN5CC(F)C6)nc4c3F)c12 (centres undefined) + CCN1C(C(=O)NC23CCC(C(=O)O)(CC2)CC3)C(c2cccc(Cl)c2F)C2(C(=O)Nc3cc(Cl)ccc32)C12CCCCC2	> 10000 nM
COc1c(OCCCN2CCOCC2)ccc2c3n(c(=NC(=O)c4cnc(N)nc4)nc12)CCN3 + CCN1C(C(=O)NC23CCC(C(=O)O)(CC2)CC3)C(c2cccc(Cl)c2F)C2(C(=O)Nc3cc(Cl)ccc32)C12CCCCC2	> 1000 nM
O=C(c1cc(Cc2n[nH]c(=O)c3ccccc23)ccc1F)N1CCN(C(=O)C2CC2)CC1 + CCN1C(C(=O)NC23CCC(C(=O)O)(CC2)CC3)C(c2cccc(Cl)c2F)C2(C(=O)Nc3cc(Cl)ccc32)C12CCCCC2	> 10000 nM
NC1CCC(NC2CC2c2ccccc2)CC1 (centres undefined) + CCN1C(C(=O)NC23CCC(C(=O)O)(CC2)CC3)C(c2cccc(Cl)c2F)C2(C(=O)Nc3cc(Cl)ccc32)C12CCCCC2	> 100 nM
C=CC(=O)N1CCN(c2nc(=O)n(-c3c(C)ccnc3C(C)C)c3nc(-c4c(O)cccc4F)c(F)cc23)C(C)C1 (centres undefined) + CCN1C(C(=O)NC23CCC(C(=O)O)(CC2)CC3)C(c2cccc(Cl)c2F)C2(C(=O)Nc3cc(Cl)ccc32)C12CCCCC2	> 10000 nM
O=C(c1ccc(F)c(F)c1Nc1ccc(I)cc1F)N1CC(O)([C@@H]2CCCCN2)C1 + CCN1C(C(=O)NC23CCC(C(=O)O)(CC2)CC3)C(c2cccc(Cl)c2F)C2(C(=O)Nc3cc(Cl)ccc32)C12CCCCC2	> 1000 nM
Cc1nc(N2CCC3(CC2)COC(C)C3N)c(CO)nc1Sc1ccnc(N)c1Cl (centres undefined) + CCN1C(C(=O)NC23CCC(C(=O)O)(CC2)CC3)C(c2cccc(Cl)c2F)C2(C(=O)Nc3cc(Cl)ccc32)C12CCCCC2	> 3000 nM
CCN1CCN(Cc2ccc(Nc3ncc(F)c(-c4cc(F)c5nc(C)n(C(C)C)c5c4)n3)nc2)CC1 + CCN1C(C(=O)NC23CCC(C(=O)O)(CC2)CC3)C(c2cccc(Cl)c2F)C2(C(=O)Nc3cc(Cl)ccc32)C12CCCCC2	> 1000 nM
Cn1ncnc1[C@H]1c2n[nH]c(=O)c3cc(F)cc(c23)N[C@@H]1c1ccc(F)cc1 + CCN1C(C(=O)NC23CCC(C(=O)O)(CC2)CC3)C(c2cccc(Cl)c2F)C2(C(=O)Nc3cc(Cl)ccc32)C12CCCCC2	> 100 nM
